Measured melting point, listed per entry for reference.
quantity.name: melting point

* CS(=O)(=O)Nc1cccc(Nc2nc(N3CCC(O)C3)c3nc[nH]c3n2)c1 (stereo not given) | 243 to 248 °C
* NNC(=O)c1cccc(C(=O)N(NC(=O)c2ccccc2)C(=O)c2ccccc2)c1 | 297 to 299 °C
* COc1ccc2c(c1)c(Cc1cc(=O)n(-c3ccc(C(F)(F)F)cc3)[nH]1)c(C)n2C(=O)c1ccc(C#N)cc1 | 92 to 94 °C
* c1ccc(CC2=NOC3(CCNCC3)C2)cc1 | 51 to 54 °C
* COc1ncccc1-c1nc(C(N)=O)c2[nH]c(=O)n(-c3ccccc3)c2n1 | 279 to 281 °C
* c1ccc(-c2ccc(Nc3nc4ccccc4o3)cc2)cc1 | 213 to 214 °C
* CC(=O)OCc1c(O)cccc1[N+](=O)[O-] | 113 to 114 °C
* FC(COC1CCC(Nc2ncnc3[nH]ncc23)CC1F)c1ccccc1 (stereo not given) | 204 to 205 °C
* COCc1cnc2c(NC(=O)c3c(Cl)cccc3Cl)cccc2c1N1CCN(C)C1=O | 199 to 201 °C
* CC1CCC(C(C)C)C(OC(=O)C(O)c2ccccc2)C1 (single isomer, unassigned; (-)) | 50 to 51 °C
* OCCSC1=NN(SCCO)CS1 | 80 °C
* CCOC(=O)C(=CNc1ncnn1C)C(=O)c1cc(F)c(Cl)nc1Cl | 102 to 103 °C
* O=C(O)c1cc(S(=O)(=O)NC2CCCCC2)cc2c1OCCO2 | 150 °C
* CC(=O)NC1(C)Cc2ccccc2C(C)c2ccccc2C1 (stereo not given) | 185 to 224 °C
* CC(C)C(C(=O)O)N(CCN1CCOCC1)S(=O)(=O)c1ccc(-c2ccc(NC(=O)c3cc4ccccc4o3)cc2)cc1 (stereo not given) | 181 to 185 °C
* Cc1cc(C(=O)N2Cc3cccn3Cc3ccccc32)ccc1C1=CCC2CCC1C2 (stereo not given) | 168 to 169 °C
* CCCCCCCCCCOC(=O)c1ccc(O)c(OC)c1 | 40 to 40.5 °C
* O=C(O)c1cccc(Cl)c1C[PH](=O)CO (stereo not given) | 219 to 220 °C
* Cn1c(C(F)(F)F)cc(=O)n(-c2ccc3snc(CF)c3c2)c1=O | 201 to 202 °C
* CCN(C)c1nc2ccccc2n2cnc(-c3nc(C4CC4)no3)c12 | 96 to 97 °C

---

quantity.name: melting point

* CC(C)(C)c1ccc(C(=O)c2ccc(C(C)(C)C)cc2)cc1 | 132 to 136 °C
* Sc1ncc2c(n1)-c1ccc(Cl)cc1C(c1ccccc1Cl)=NC2 | 232 to 234 °C
* CS(=O)(=O)c1ccc(-c2cc(=O)n(CC3CCCC3)nc2-c2ccc(F)cc2)cc1 | 76 to 77 °C
* CCOc1ccccc1C=C1CCc2c1oc1ccc(C(=O)O)cc1c2=O | 300 to 302 °C
* O=C[C@H](OCc1ccccc1)[C@@H](OCc1ccccc1)[C@@H](O)COCc1ccccc1 | 68 to 73 °C
* CC(C)n1nc(-c2sc(NC=O)nc2-c2ccccc2)ccc1=O | 232 to 234 °C
* CC(C)C(=O)c1cn(Cc2c(F)cccc2F)c2sc(-c3ccccc3)c(CBr)c2c1=O | 189 to 192 °C
* CC(=O)SCC(C(=O)N1CCC(=C2c3ccc(Cl)cc3CCc3cccnc32)CC1)c1ccccc1 (centres undefined) | 92.7 to 93 °C
* CCOC(=O)N1CCCSC1=C(C(C)=O)[N+](=O)[O-] | 52 to 54 °C

---

Measured melting point, listed per entry for reference.
quantity.name: melting point

- O=C(O)C(OCc1ccc(-c2ccc(Cl)cc2)cc1)(C(F)(F)F)C(F)(F)F: 90 to 92 °C
- C=C(C(=O)c1ccc(OCC(=O)O)c(Cl)c1Cl)C(C)(C)C: 160 to 162 °C
- CCOC(=O)C[C@@H]1c2ccccc2O[C@H]1c1ccccc1 (relative stereo): 42 to 43 °C
- CC(C)CC1(C(CCN2C(=O)c3c(F)c(F)c(F)c(F)c3C2=O)C(=O)NO)CCN(CCc2ccccc2)C1=O (centres undefined): 172 to 174 °C
- CC1(C)CC(=O)CC(C)(C)N1SSSSN1C(C)(C)CC(=O)CC1(C)C: 148 to 150 °C
- COc1ccc(-n2c(-c3ccc(Cl)cc3Cl)nc(C(=O)NC3CCCCC3)c2C)cc1: 160 to 161 °C
- O=C(CCCC(=O)Oc1cc(O)cc(O)c1)Oc1cc(O)cc(O)c1: 205 to 208 °C
- COc1cc(OC)cc(N(C)S(=O)(=O)c2ccc(C)cc2)c1: 110 to 111 °C
- OCc1c(OCc2ccccc2)ccc2c1CC[C@@H](NC1CCC1)[C@@H]2O (relative stereo): 156 to 158 °C
- COc1nc(C)cnc1N(C(=O)OCC(C)C)S(=O)(=O)c1cccnc1Cl: 99 to 101 °C
- O=C(CCc1ccccc1)N[C@H](Cc1ccc(C(F)(F)F)o1)[C@@H](O)c1ccc(F)cc1 (racemic): 91 to 92 °C
- O=C(NCCO)c1cccc(-c2cccc3cn(Cc4cccc(C(F)(F)F)c4)nc23)c1: 136 to 137 °C
- CSC1C(=O)Nc2c(Oc3ccc4ccccc4c3)cccc21 (centres undefined): 174 to 175 °C
- Cc1cc(C)cc(NC(=O)Cc2ccc(O)cc2)c1: 183 to 185 °C
- Cc1cc2c(cc1C1=NNC(=O)CC1)NC(=O)CO2: 255 to 257 °C
- CCOC(=O)c1cn(CC)c2nc(Cl)c(F)cc2c1=O: 150 to 160 °C
- CC(C)(C)N=NC1(C(N)=O)CCCCC1: 86 to 92 °C
- CC(C)[C@H](NC(=O)N(C)Cc1cccnc1)C(=O)N[C@@H](Cc1ccccc1)[C@H](O)[C@@H](O)[C@H](Cc1ccccc1)NC(=O)[C@@H](NC(=O)N(C)Cc1cccnc1)C(C)C: 95 to 97 °C
- Cn1c(COc2ccc(CC3SC(=O)NC3=O)cc2)nc2ccc(Cl)nc21 (centres undefined): 222 to 223 °C

---

Measured melting point, listed per entry for reference.
quantity.name: melting point

* CC(C)(SCCCCCCNS(=O)(=O)c1ccc(Cl)cc1)C(=O)O | 93 to 94 °C
* CN1Cc2c(C#CC(C)(C)C)ncn2-c2ccccc2C1=O | 148 to 150 °C
* CN(C)c1ccc(C(=O)NN=C2C(=O)Nc3ccc(I)cc32)cc1 | 324 °C
* Cc1cccc(C)c1N(CC(=O)NCC(=O)O)C(=O)c1ccc(Cl)cc1 | 200 to 201 °C
* CCOC(=O)c1ccc(OCCCCCCCCCCCCCOc2ccc(Cl)cc2)cc1 | 75 to 77 °C
* c1ccc(CN2C[C@H]3CCCC[C@@]3(Cc3ccccc3)C2)cc1 (relative stereo) | 156 to 158 °C
* Cc1ccc(S(=O)(=O)N2CCCC2c2ccc(N(C)C)c(F)c2)cc1 (racemic) | 66 °C
* CCCc1cc(Cl)c2oc(Cc3ccc(O)cc3)c(C)c2c1O | 142 to 143 °C
* N#Cc1ccc(NC(=O)Nc2ccc(S(N)(=O)=O)cc2)cc1 | 265 to 267 °C
* COc1ccc2c(c1OC)CCC2c1c[nH]cn1 (configuration not stated) | 156 to 158 °C
* CN(c1cccc(-c2ccnc3c(C#N)cnn23)c1)S(C)(=O)=O | 193 to 195 °C
* N#CC=Cc1cccc(Cl)c1F | 90 to 92 °C
* CC(=O)N1Cc2cnc(C)n2-c2ccc(Cl)cc2C1c1ccccc1F (configuration not stated) | 185 to 186 °C
* CCCCCCCCNC(=N)NC#N | 69 to 74 °C
* CC(=O)Nc1cccc(C(=O)NCc2ccc(-n3c(-c4cccnc4N)nc4cc(C)cnc43)cc2)c1 | 180 to 181 °C
* Cc1noc(C)c1C(C)(O)c1ccsc1 (configuration not stated) | 93.5 to 95 °C
* O=C(Nc1ccc(I)cc1)c1ccccc1-c1ccc(C(F)(F)F)cc1 | 147 °C
* c1cn2c(n1)-c1sccc1-n1cnc(-c3nc(C4CC4)no3)c1C2 | 231 to 233 °C
* FC(F)(F)c1cc(C(F)(F)F)c2nc(N3CCN(c4ncccc4C(F)(F)F)CC3)[nH]c2c1 | 142 °C
* Oc1ccc2ccc(OCc3ccccn3)cc2c1 | 190 to 193 °C
* c1c(C2CC2)n[nH]c1C1CC1 | 161 to 164 °C
* Cn1cccc1-c1nc2cc(N)ccc2o1 | 183 to 185 °C

---

Measured melting point, listed per entry for reference.
quantity.name: melting point

- O=C(Nc1nnc(CC2CC2)o1)C(c1ccccc1)c1ccccc1: 158 to 159 °C
- NC(=O)c1c(F)ccc(OCc2nc3ncccc3o2)c1F: 180 to 181 °C
- COc1ccc(-c2ccc3ccc(NC(=O)c4ccccc4)nc3n2)cc1: 185 to 187 °C
- O=C1NC(=O)C(Cc2ccc(OCCc3nc(-c4ccccc4)oc3CO)cc2)S1 (stereo unspecified): 98 to 99 °C
- CN1CCN(c2ccc3ncnc(N4CCc5ccc(Cl)cc54)c3c2)CC1: 289 to 290 °C
- CC(=O)c1c(C#N)nn(-c2c(Cl)cc(OC(F)(F)F)cc2Cl)c1N: 192 to 193 °C
- CCC(C(=O)NC)n1nnc2ccccc21 (stereo unspecified): 136 to 137 °C
- CC1=C(C(=O)O)OCCO1: 103 to 105 °C
- COc1ccc2c(c1)C=C(C(O)C(F)(F)F)CC2 (stereo unspecified): 66 to 68 °C
- Cc1ccc(CCC(CO)n2cnc(C(N)=O)c2)cc1 (stereo unspecified): 138 to 141 °C
- COc1nc2cc([N+](=O)[O-])c(C)c(C(=O)N3CCNCC3)c2nc1OC: 150 to 152 °C
